Experiment: chemical genetic growth profiling, strain panel (AID 1159580);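 note: tested at 20 µM; growth read once vehicle control cultures reached saturation at 30 °C; 1 = growth at the plate median or of vehicle wells; lower values mean less growth of the strain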
Conditions: S. cerevisiae deletion strains, growth OD, locus YDR195W, strain ref2
Among all 5,500 compounds or so, about 2,000 (36%) were called active. Inconclusive results (about 18%) are left out. The list shows a part of the results.
Consider the following compounds and their measured normalized growth readings.
Please give the numeric answer without any surrounding text.

Some compounds with known normalized growth results, for comparison:
{"COMPOUND": "CC[C@@H]1OC(=O)C[C@@H](O)[C@H](C)[C@@H](O[C@@H]2O[C@H](C)[C@@H](O)[C@H](N(C)C)[C@H]2O)[C@@H](CCN2C[C@H](C)C[C@H](C)C2)C[C@@H](C)C(=O)/C=C/C(C)=C\\[C@@H]1CO[C@@H]1O[C@H](C)[C@@H](O)[C@@H](OC)[C@H]1OC", "normalized growth": 0.972}
{"COMPOUND": "NCCCCCC(=O)O", "normalized growth": 0.976}
{"COMPOUND": "CN1CCC[C@@H]1CCO[C@](C)(c1ccccc1)c1ccc(Cl)cc1", "normalized growth": 1.08}

Inquiry: Check the records and state normalized growth for CCC(=O)OC1[C@@H]2CC3=C4CC(=O)O[C@@H](c5ccoc5)[C@]4(C)CCC3[C@@](C)(C2=O)[C@@H](CC(=O)OC)C1(C)C (stereo partly specified)
Reply text: 0.984

Inquiry: Check the records and state normalized growth for CC12CCC3C(=CCc4cc(O)ccc43)C1CCC2=O (stereo unspecified)
Reply text: 1.12

Inquiry: Check the records and state normalized growth for CC(C)=CC1C(C(=O)OCc2cccc(Oc3ccccc3)c2)C1(C)C (stereo unspecified)
Reply text: 0.98
